# Test system: PC-3 prostate
# assay protocol: NCI tumour cell line growth inhibition, 48 h
Quick reference for TGI among some molecules
property: TGI

- molecule: "Cc1ccc2c(=O)c(C(=O)Nn3c(C)csc3=S)c[nH]c2n1"
  assay system: "PC-3 prostate"
  property: "TGI"
  measured value: "> 100 µM"
- molecule: "COc1ccc(/C=c2\\sc3n(c2=O)C2C(NN=3)N(C)C(=O)N2C)cc1 (stereo not given)"
  assay system: "PC-3 prostate"
  property: "TGI"
  measured value: "> 100 µM"
- molecule: "COC(=O)[C@H]1NC(=O)CCSSC1(C)C"
  assay system: "PC-3 prostate"
  property: "TGI"
  measured value: "> 100 µM"
- molecule: "O=C1Nc2ccccc2Cn2c1cc1oc(-c3ccccc3)cc12"
  assay system: "PC-3 prostate"
  property: "TGI"
  measured value: "> 100 µM"
- molecule: "O=C(CCCCCCCCC(=O)N1C(=O)CC(=O)N(c2ccccc2)C1=S)N1C(=O)CC(=O)N(c2ccccc2)C1=S"
  assay system: "PC-3 prostate"
  property: "TGI"
  measured value: "> 100 µM"
- molecule: "CCCCCCCCCCCCc1ccc(S(=O)(=O)O)cc1.[Zn+2]"
  assay system: "PC-3 prostate"
  property: "TGI"
  measured value: "> 100 µM"
- molecule: "COc1ccc(/C=C2\\CCS(=O)(=O)c3ccccc3C2=O)cc1OC"
  assay system: "PC-3 prostate"
  property: "TGI"
  measured value: "> 100 µM"
- molecule: "COc1cc(O)c2c(=O)c3c(C)cccc3n(C)c2c1"
  assay system: "PC-3 prostate"
  property: "TGI"
  measured value: "> 10 µM"
- molecule: "Cc1ccc(/C=C2\\CN(C(=O)C(Cl)Cl)C/C(=C\\c3ccc(C)cc3)C2=O)cc1"
  assay system: "PC-3 prostate"
  property: "TGI"
  measured value: "0.672 µM"
- molecule: "C[n+]1c(-c2ccc(/C=N/Nc3ccnc(N/N=C/c4ccc(-c5cn6ccsc6[n+]5C)cc4)n3)cc2)cn2ccsc21"
  assay system: "PC-3 prostate"
  property: "TGI"
  measured value: "79.9 µM"

----------
Known TGI of a selection of molecules
# Test system: NCI/ADR-RES ovarian
# assay protocol: NCI tumour cell line growth inhibition, 48 h

- molecule: "CCCCCc1nnc(NS(=O)(=O)c2ccc(NC(=O)OCC(C)C)cc2)s1"
  TGI: "> 100 µM"
- molecule: "O=c1c2c3c(sc2nc2n1N=C(c1ccc(Cl)cc1)CS2)CCCC3"
  TGI: "> 100 µM"
- molecule: "Cc1ccc2c(=O)c(C(=O)Nn3c(C)csc3=S)c[nH]c2n1"
  TGI: "> 100 µM"
- molecule: "COC1CC(OC2C(C)OC(OC3C(C)OC(OC4C(O)CC(O[C@H]5CC[C@@]6(C)C(=CC[C@]7(O)[C@@H]6C[C@@H](OC(C)=O)[C@@]6(C)[C@]7(O)CC[C@@]6(O)C(C)=O)C5)OC4C)CC3OC)CC2OC)OC(C)C1O (stereo not given in full)"
  TGI: "> 12.5 µM"
- molecule: "C(=Nc1ccc(-c2nc3ccccc3[nH]2)cc1)c1ccc[nH]1"
  TGI: "> 100 µM"

----------
# Tested on: U251 CNS
Outcomes: T = active, F = inactive

- compound: "FC(F)(F)c1ccc(-c2cnc(-n3cc(COCCN4CCCCC4)nn3)nc2NC2CCCCCC2)cc1"
  assay system: "U251 CNS"
  classification: "F"
- compound: "CC(=O)c1c(CN(C)c2ccccc2)n([O-])c2ccccc2[n+]1=O"
  assay system: "U251 CNS"
  classification: "F"
- compound: "COc1cc(-c2cc(-c3ccc(Nc4ccnc5cc(Cl)ccc45)cc3)nc(N3CCOCC3)n2)cc(OC)c1OC"
  assay system: "U251 CNS"
  classification: "F"
- compound: "COC1=C(C)C(=O)c2c(c(CCCl)c3n2CCC3O)C1=O (stereo not given)"
  assay system: "U251 CNS"
  classification: "T"
- compound: "COc1cccc2c1-c1c(c3ccc([N+](=O)[O-])cc3c(=O)n1CCCN)C2=O"
  assay system: "U251 CNS"
  classification: "F"

----------
# Tested on: A549 NSCLC
# assay protocol: NCI tumour cell line growth inhibition, 48 h
property: TGI

- molecule: "CN(C)c1ccc(/C=C/c2ccc(/C=C/c3ccc(N(C)C)cc3)cc2)cc1"
  assay system: "A549 NSCLC"
  property: "TGI"
  measured value: "> 100 µM"
- molecule: "Cc1cc(-c2ccccc2)nc(Nc2nc3ccccc3o2)n1"
  assay system: "A549 NSCLC"
  property: "TGI"
  measured value: "> 100 µM"
- molecule: "NC(=O)c1c([N+](=O)[O-])cc(C(F)(F)F)cc1[N+](=O)[O-]"
  assay system: "A549 NSCLC"
  property: "TGI"
  measured value: "> 100 µM"
- molecule: "S=c1[nH]nc(Cc2ccccc2)c(=S)[nH]1"
  assay system: "A549 NSCLC"
  property: "TGI"
  measured value: "> 100 µM"
- molecule: "CCN(CC)C(=S)Nc1ccc(-c2cc3ccc(O)cc3oc2=O)cc1"
  assay system: "A549 NSCLC"
  property: "TGI"
  measured value: "> 100 µM"
- molecule: "CCC/C=C1\\CCC(CN(C)C)C1=O (stereo unspecified)"
  assay system: "A549 NSCLC"
  property: "TGI"
  measured value: "> 62.2 µM"

----------
TGI values for the compounds below.
# System: EKVX NSCLC
# assay protocol: NCI tumour cell line growth inhibition, 48 h

- compound: "CCOC(=O)c1c(Br)c(-c2ccc(OC)cc2)c(Br)n1C"
  result comparator: "="
  TGI [µM]: 74.8
- compound: "COc1ccc(S(=O)(=O)NC2=NCCN2C(=S)SN2CCn3c2nsc3=S)cc1"
  result comparator: "="
  TGI [µM]: 30.6
- compound: "COC(=O)C1C=CCON2CCc3c(n(C)c4ccccc34)C12 (configuration not stated)"
  result comparator: ">"
  TGI [µM]: 100
- compound: "CC12CC3OC(=O)C1COC14OC5(C2C1=O)C(O)(CCC1C4CC2OC24CC=CC(=O)C14C)C(=O)OC35C (configuration not stated)"
  result comparator: ">"
  TGI [µM]: 100
- compound: "COc1cc(O)c2c(=O)c3c(C)cccc3n(C)c2c1"
  result comparator: ">"
  TGI [µM]: 10
- compound: "CC1(C)C(CCO)CC1n1cc(I)c(=O)[nH]c1=O (configuration not stated)"
  result comparator: ">"
  TGI [µM]: 100
- compound: "Cc1ccc(-c2c3c(nn2-c2ccc(S(N)(=O)=O)cc2)-c2ccccc2C3)cc1"
  result comparator: "="
  TGI [µM]: 51.7

----------
# Test system: IGROV1 ovarian
# assay protocol: NCI tumour cell line growth inhibition, 48 h

- record smiles: "N[C@@H]1C(=O)N2C(C(=O)OC(c3ccccc3)c3ccccc3)=C(CCl)CS[C@H]12"
  assay system: "IGROV1 ovarian"
  GI50: "47.4 µM"
- record smiles: "Nc1cc(O)ccc1N=Nc1ccc(-c2nc3ccccc3[nH]2)cc1"
  assay system: "IGROV1 ovarian"
  GI50: "19.7 µM"
- record smiles: "Cc1cc(S(=O)(=O)/N=C/N(C)C)c(SC(=O)c2ccc(Cl)cc2)cc1Cl"
  assay system: "IGROV1 ovarian"
  GI50: "38.5 µM"

----------
# System: NCI-H460 lung
# assay protocol: NCI tumour cell line growth inhibition, 48 h
# TGI annotations

- molecule: "CCOC(=O)c1c(-c2ccc(Cl)cc2)c(C#N)c(=S)n(C2OC(COC(C)=O)C(OC(C)=O)C(OC(C)=O)C2OC(C)=O)c1-c1ccccc1 (stereo unspecified)"
  TGI: "> 100 µM"
- molecule: "Nc1ccccc1.[C-]#[O+].[C-]#[O+].[C-]#[O+].[C-]#[O+].[C-]#[O+].[Cr]"
  TGI: "> 10 µM"
- molecule: "O=c1cc(NNc2cccc(F)c2)[nH]c(=O)[nH]1"
  TGI: "> 100 µM"
- molecule: "O=S(OC12CC3CC(CC(C3)C1)C2)c1cc(Cl)cc(Cl)c1OCc1ccccc1 (stereo unspecified)"
  TGI: "> 100 µM"
- molecule: "CCOC(=O)c1c(Br)c(-c2ccc(OC)cc2)c(Br)n1C"
  TGI: "> 100 µM"
- molecule: "NC(=O)c1ccccc1NC(=O)C(=O)Cc1nc2ccccc2[nH]c1=O"
  TGI: "> 100 µM"

----------
# Tested on: MCF7 breast
# assay protocol: NCI tumour cell line growth inhibition, 48 h

- molecule: "COc1cc2cc(C(=O)N3CC(CCl)c4c3cc(NC(=O)OCc3ccc([N+](=O)[O-])cc3)c3ccccc43)[nH]c2c(OC)c1OC (stereo unspecified)"
  assay system: "MCF7 breast"
  TGI: "> 100 µM"
- molecule: "Cc1ccc(NC(=O)C(Cc2c[nH]c3ccccc23)NC(=O)Oc2ccccc2)cc1C (stereo unspecified)"
  assay system: "MCF7 breast"
  TGI: "> 100 µM"
- molecule: "CCOP(=O)(OCC)C(c1ccccc1)N(C(=O)NC(F)(F)F)c1cccc(F)c1 (stereo unspecified)"
  assay system: "MCF7 breast"
  TGI: "> 100 µM"
- molecule: "COC(=O)[C@H]1NC(=O)CCSSC1(C)C"
  assay system: "MCF7 breast"
  TGI: "> 100 µM"
- molecule: "CC(=O)N1N=C(c2ccc(Nc3ccnc4cc(Cl)ccc34)cc2)CC1c1ccc(Cl)cc1 (stereo unspecified)"
  assay system: "MCF7 breast"
  TGI: "> 100 µM"
- molecule: "O=c1[nH]c(=O)n(C2CC(O)C(CO)O2)cc1NN=NCCCc1ccccc1 (stereo unspecified)"
  assay system: "MCF7 breast"
  TGI: "> 100 µM"
- molecule: "O=C(NC1CCCCC1)c1cc2ccccc2cc1O"
  assay system: "MCF7 breast"
  TGI: "> 100 µM"
- molecule: "Cc1ccc(/C=C2\\CN(C(=O)C(Cl)Cl)C/C(=C\\c3ccc(C)cc3)C2=O)cc1"
  assay system: "MCF7 breast"
  TGI: "0.836 µM"
- molecule: "Cc1ccc2c(=O)c(C(=O)Nn3c(C)csc3=S)c[nH]c2n1"
  assay system: "MCF7 breast"
  TGI: "> 100 µM"
- molecule: "CC(C)(C)c1ccc(OC(=O)Nc2ccc(O)c(C(=O)O)c2)cc1"
  assay system: "MCF7 breast"
  TGI: "> 100 µM"
- molecule: "CC(C)N1CCN(Cc2ccc3c(NNC(=O)c4ccccc4)nc4cc(F)ccc4n23)CC1"
  assay system: "MCF7 breast"
  TGI: "1.48 µM"
- molecule: "Brc1ccc2[nH]cc(-c3nc(-c4c[nH]c5ncccc45)cs3)c2c1"
  assay system: "MCF7 breast"
  TGI: "13.7 µM"
- molecule: "COc1cc(C2=NNC(=O)c3ccccc3N2c2nc(-c3cccs3)nc3ccc(Br)cc23)cc(OC)c1OC"
  assay system: "MCF7 breast"
  TGI: "7.28 µM"
- molecule: "COc1cc(C2SC(C)C(=O)N2c2ccc(-c3csc(NS(=O)(=O)c4ccc(Cl)c(OC)c4)n3)cc2)ccc1O (stereo unspecified)"
  assay system: "MCF7 breast"
  TGI: "> 100 µM"
- molecule: "CC(C)CCCC(C)[C@H]1CC[C@H]2[C@@H]3CC[C@H]4C[C@@H](CCC=C(c5cc(Cl)c(O)c(C(=O)OC(C)C)c5)c5cc(Cl)c(O)c(C(=O)OC(C)C)c5)CC[C@]4(C)[C@H]3CC[C@]12C (stereo partly specified)"
  assay system: "MCF7 breast"
  TGI: "> 50 µM"
- molecule: "S=C(Nc1ccc(N=Nc2ccccc2)cc1)SCc1ccccc1"
  assay system: "MCF7 breast"
  TGI: "64.6 µM"
- molecule: "C=CCc1cc(-c2cc(CC=C)c(O)c(CN(CC)CC)c2)cc(CN(CC)CC)c1O"
  assay system: "MCF7 breast"
  TGI: "> 100 µM"
- molecule: "CSc1c(C#N)c(N)nc2c(N=Nc3ccc(Br)cc3)c(N)nn12"
  assay system: "MCF7 breast"
  TGI: "8.63 µM"
- molecule: "CC(=O)OCc1cncn1S(=O)(=O)c1ccc(C)cc1"
  assay system: "MCF7 breast"
  TGI: "> 100 µM"
- molecule: "CCO[C@@]1(COCc2ccccc2)OC(=O)C[C@@H]1N1C(=O)OC[C@@H]1c1ccccc1"
  assay system: "MCF7 breast"
  TGI: "> 100 µM"
- molecule: "COc1cc2c(cc1OC)C(Sc1ccc(SC)cc1)c1c(nc(N)c(C#N)c1N)O2 (stereo unspecified)"
  assay system: "MCF7 breast"
  TGI: "3.54 µM"
- molecule: "CSCCCS/C1=C/CCCCCCCCCC1"
  assay system: "MCF7 breast"
  TGI: "> 100 µM"
- molecule: "COC(=O)C(=CNC(N)=O)C(=O)OC"
  assay system: "MCF7 breast"
  TGI: "> 100 µM"
- molecule: "COc1ccc2c(c1)CC[C@@H]1[C@@H]2CC[C@]2(C)[C@@H](NC(=O)/C=C/c3ccc(O)c(O)c3)CC[C@@H]12"
  assay system: "MCF7 breast"
  TGI: "> 100 µM"
- molecule: "CSC1C(=O)Nc2ccc3ccccc3c21 (stereo unspecified)"
  assay system: "MCF7 breast"
  TGI: "> 100 µM"
- molecule: "COC1CC(OC2C(C)OC(OC3C(C)OC(OC4C(O)CC(O[C@H]5CC[C@@]6(C)C(=CC[C@]7(O)[C@@H]6C[C@@H](OC(C)=O)[C@@]6(C)[C@]7(O)CC[C@@]6(O)C(C)=O)C5)OC4C)CC3OC)CC2OC)OC(C)C1O (stereo partly specified)"
  assay system: "MCF7 breast"
  TGI: "> 12.5 µM"
- molecule: "Nc1nc(N)c(C=Nc2ccc(Br)cc2)c(Nc2ccc(Br)cc2)n1"
  assay system: "MCF7 breast"
  TGI: "15.1 µM"
- molecule: "Cc1cc(Nc2nc(-c3cccnc3)nc3ccccc23)n[nH]1"
  assay system: "MCF7 breast"
  TGI: "> 100 µM"
- molecule: "COc1ccc(C(c2ccc(OCCN(C)C)cc2)c2cc3ccccc3c3ccccc23)cc1 (stereo unspecified)"
  assay system: "MCF7 breast"
  TGI: "3.61 µM"
- molecule: "COc1cccc(-c2nn(-c3ccccc3)cc2-c2ccnc(NCCNC(=O)Nc3cccc(C(F)(F)F)c3)c2)c1"
  assay system: "MCF7 breast"
  TGI: "4.89 µM"
- molecule: "C=CCN1C(=O)/C(=C/c2ccco2)N=C1SC1OC(COC(C)=O)C(OC(C)=O)C(OC(C)=O)C1OC(C)=O (stereo unspecified)"
  assay system: "MCF7 breast"
  TGI: "> 100 µM"
